Each recorded value in this set is attributed to paper PMC12703733.

type: cell-based, human; details: human, Cell viability (%)
Bridge positions count the residues as written; N and C are the ends. Square brackets hold non-standard residues; d marks the D form. Peptide text beside a SMILES is read from it. Pro(cis-4-guanidino) = NC(N)=N[C@@H]1CN[C@H](C(=O)O)C1
parameter measured: viability at 2 h, 25 µM
Quick note: unit goes after the number.

Summary for this molecule, CC[C@H](C)[C@H](NC(=O)[C@H](CCCNC(=N)N)NC(=O)[C@H]1CCC(=O)NCCCC[C@H](NC(=O)[C@H](Cc2ccccc2)NC(=O)[C@H](Cc2c[nH]c3ccccc23)NC(=O)[C@@H]2C[C@H](NC(=N)N)CN2C(=O)[C@@H](NC(=O)[C@@H](N)Cc2ccccc2)C(C)C)C(=O)N[C@@H](CCCCN)C(=O)N[C@@H](Cc2ccccc2)C(=O)N[C@H](CC(C)C)C(=O)N1)C(=O)N[C@@H](CC(C)C)C(N)=O [Peptide 7, FV(4-guanidino)PWF[KKFle]RIL] (H-FV[Pro(cis-4-guanidino)]WFKKF[dL][dE]RIL-NH2; lactam 6-10) : viability at 2 h, 25 µM is 72%
